target: RSV prefusion F (preF), subtype A (respiratory syncytial virus, subtype A, UniProt P03420 26-513); test: BLI, IgG
Endpoint: Kd

Binder | Assay Value
ADI-20960 (antibody, V domains shown) VH: QVQLQQWGAGVLKPSETLSLTCAVNGRSLSGHYWSWIRQTPGKGLEWIGEINNSGGTHYSPSLKSRVIISGDTAKNQLSLKLSSVTAADTAVYYCAKGSAEWYFDLWGRGTLVTVSS VL: DIRVTQSPSTLSASVGDRVTITCRASQSVSTWLAWYQQKPGKPPSLLIFKASTLESGVPSRFSGSGSGTEFTLTISSLQPDDFATYYCQQYNTYSPWTFGPGTKVEIK | 0.22 nM
ADI-20959 (antibody, V domains shown) VH: EVQLLESGAEVKKPGASVKVSCKTSGYTFSNYGVSWVRQAPGQGLEWLGWISAYNGNTNYAQKLQGRVTMTTDSSTSTAYMEVRSLRSDDTAVYYCARDVAPVAASLFDYWGQGTLVTVSS VL: DIRLTQSPLSLPVTLGQPASISCRSSQSLEFTDGNTYLSWFQQRPGQSPRRLIYKVSNRDSGVPDRFSGSGSGTDFTLKINRVEAEDVGVYYCMQGIHWPPTFGPGTKVEIK | 0.337 nM
